# TARGET_OF_ASSAY: Tyrosine-protein phosphatase non-receptor type 7 (Homo sapiens) (UniProt P35236)
# Sequence (P35236 whole entry, looked up): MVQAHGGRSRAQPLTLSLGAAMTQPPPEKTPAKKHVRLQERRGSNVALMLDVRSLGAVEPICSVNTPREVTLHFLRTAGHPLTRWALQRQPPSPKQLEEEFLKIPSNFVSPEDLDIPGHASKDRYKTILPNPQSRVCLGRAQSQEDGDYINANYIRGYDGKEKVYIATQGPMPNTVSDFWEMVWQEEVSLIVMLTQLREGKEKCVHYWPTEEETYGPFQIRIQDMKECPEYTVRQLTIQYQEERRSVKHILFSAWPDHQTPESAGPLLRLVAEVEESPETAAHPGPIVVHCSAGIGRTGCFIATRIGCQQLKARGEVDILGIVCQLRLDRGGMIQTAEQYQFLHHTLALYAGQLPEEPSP
# MEASUREMENT_DESCRIPTION: HePTP (PTPN7) phosphatase inhibitor potency, SAR follow-up, biochemical, set 2 (AID 449736)
# CONDITION_DETAILS: recombinant HePTP phosphatase activity, inhibition
QUANTITY_KIND: IC50

Problem: Entry COc1cc(/C=C2\SC(=O)N(CC(=O)Nc3cccc(C)c3)C2=O)cc(Cl)c1OCC(=O)O needs its IC50 filled in; supply it.
Result: 3.61 µM

meta.source: PubChem BioAssay AID449736
